These entries and their values trace back to patent US8822467B2.

Readings of pIC50 for the listed compounds
- study.system: human CRTH2 (Homo sapiens, UniProt Q9Y5Y4)
- Construct: expressed in transfected cells
- Sequence (Q9Y5Y4 whole entry): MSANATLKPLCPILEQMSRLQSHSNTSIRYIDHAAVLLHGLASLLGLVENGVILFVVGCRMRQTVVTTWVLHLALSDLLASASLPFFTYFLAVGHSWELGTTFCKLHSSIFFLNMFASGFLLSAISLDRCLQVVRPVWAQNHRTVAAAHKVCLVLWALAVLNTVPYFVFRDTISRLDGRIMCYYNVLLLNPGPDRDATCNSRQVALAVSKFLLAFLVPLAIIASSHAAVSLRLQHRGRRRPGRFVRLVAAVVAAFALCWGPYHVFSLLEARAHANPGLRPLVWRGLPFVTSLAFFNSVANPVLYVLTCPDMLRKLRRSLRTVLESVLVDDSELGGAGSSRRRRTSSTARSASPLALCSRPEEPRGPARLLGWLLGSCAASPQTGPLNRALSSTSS
- method: [35S]GTPγS binding assay (SPA) on membranes from CHO-K1 cells stably expressing human CRTH2, stimulated with 60 nM DHK-PGD2
- Format: biochemical
- stated.conditions: potency class symbols; Table 2; read-out: CRTH2 hGTPγS IC50
pIC50: −log10 of the molar value.

compound	pIC50
CN(Cc1ccc(OCC(=O)O)c(-c2cccc(C#N)c2)c1)S(=O)(=O)c1cc(F)cc(Cl)c1 [Example 99]	> 7.00
CN(Cc1ccc(OCC(=O)O)c(-c2cccc(C(=O)N3CCOCC3)c2)c1)S(=O)(=O)c1ccc(F)cc1 [Example 175]	5.00 to 6.00
Cc1cc(S(=O)(=O)N(C)Cc2ccc(OCC(=O)O)c(-c3cc(F)cc(F)c3)c2)ccc1F [Example 82]	> 7.00
CN(Cc1ccc(OCC(=O)O)c(-c2cccc(C(F)(F)F)c2)c1)S(=O)(=O)c1cccc2cccnc12 [Example 143]	6.00 to 7.00
CN(Cc1cc(-c2cc(F)cc(C#N)c2)c(OCC(=O)O)cc1Cl)S(=O)(=O)c1ccc(F)cc1 [Example 213]	> 7.00
CCN(Cc1ccc(OCC(=O)O)c(-c2cccc(C(F)(F)F)c2)c1)S(=O)(=O)c1ccc(F)cc1 [Example 140]	6.00 to 7.00

Now, please, on to the next compound.
State its pIC50 on human CRTH2 (Homo sapiens, UniProt Q9Y5Y4): CN(Cc1ccc(OCC(=O)O)c(-c2cccc(C#N)c2)c1)S(=O)(=O)c1cccc(F)c1 [Example 89]
> 7.00

====

Readings of IC50 for the listed compounds
- study.system: human CRTH2 (Homo sapiens)
- Construct: expressed in transfected cells
- method: [35S]GTPγS binding assay (SPA) on membranes from CHO-K1 cells stably expressing human CRTH2, stimulated with 60 nM DHK-PGD2
- Format: biochemical
- stated.conditions: potency class symbols; Table 2; read-out: CRTH2 hGTPγS IC50

Give its IC50 value. Item: CN(Cc1ccc(OCC(=O)O)c(-c2cc(F)cc(C(F)(F)F)c2)c1)S(=O)(=O)c1ccc(F)cc1 [Example 79]
< 0.1 µM

Give its IC50 value. Item: CN(Cc1cc(-c2cccc(C#N)c2)c(OCC(=O)O)cc1F)S(=O)(=O)c1cccc(F)c1 [Example 87]
< 0.1 µM

Give its IC50 value. Item: CN(Cc1ccc(OCC(=O)O)c(-c2cccc(S(C)(=O)=O)c2)c1)S(=O)(=O)c1cccc(C#N)c1 [Example 88]
< 0.1 µM

Give its IC50 value. Item: CN(Cc1ccc(OCC(=O)O)c(-c2cccc(C(F)(F)F)c2)c1)S(=O)(=O)c1cccc2ccccc12 [Example 145]
0.1 to 1 µM

Give its IC50 value. Item: Cc1noc(C)c1S(=O)(=O)N(C)Cc1ccc(OCC(=O)O)c(-c2cccc(C(F)(F)F)c2)c1 [Example 160]
1 to 10 µM

Give its IC50 value. Item: CN(Cc1ccc(OCC(=O)O)c(-c2cncc(C#N)c2)c1)S(=O)(=O)c1ccc(F)cc1 [Example 108]
0.1 to 1 µM

Give its IC50 value. Item: CN(Cc1ccc(OCC(=O)O)c(-c2cccc(S(C)(=O)=O)c2)c1)S(=O)(=O)c1ccc(C#N)cc1 [Example 86]
< 0.1 µM
